# condition_set: human gut metagenome, 24 h, 2 µM; further: call rule not given here
endpoint_label: Bacterial Biotransformation

Some solved entries appear below for comparison.
molecule	Bacterial Biotransformation
COC1=CC(=O)C[C@@H](C)[C@]12Oc1c(Cl)c(OC)cc(OC)c1C2=O	Compound metabolized
C=CCc1ccccc1OCC(O)CNC(C)C (stereo not given)	Compound NOT metabolized
COc1ccc2c(c1OC)C(=O)O[C@@H]2[C@H]1c2c(cc3c(c2OC)OCO3)CCN1C	Compound NOT metabolized
Cc1ccc(S(=O)(=O)NC(=O)NN2CC3CCCC3C2)cc1 (stereo not given) [GLICLAZIDE]	Compound metabolized

Note down Bacterial Biotransformation recorded for CC(Oc1c(Cl)cccc1Cl)C1=NCCN1 (stereo not given) Compound NOT metabolized
